# measurementNotes: Pharmacokinetic test in mice
# Type: in vivo, male ICR mice
# testParameters: male, ICR, mouse, plasma, oral administration by gavage 10 mg/kg
metricName: Tmax (min)
Numbers only, in min.

Which Tmax value belongs to C[C@@H](OCCc1c[nH]nn1)C(=O)N1Cc2cnc(NC3Cc4ccccc4C3)nc2C1 ?
25.2

====

# measurementNotes: Pharmacokinetic test in rats
# Format: in vivo, male SD rats
# testParameters: male, SD, rat, plasma, intravenous administration 1 mg/kg
metricName: half-life

| structureSmiles | half-life |
| --- | --- |
| C[C@@H](Cc1cnn[nH]1)OCC(=O)N1Cc2cnc(NC3Cc4ccccc4C3)nc2C1 | 20.4 min |

Next item in the queue.
Which half-life value belongs to C[C@@H](OCCc1c[nH]nn1)C(=O)N1Cc2cnc(NC3Cc4ccccc4C3)nc2C1 ?
25.8 min

====

# measurementNotes: Pharmacokinetic test in rats
# Type: in vivo, male SD rats
# testParameters: male, SD, rat, plasma, intravenous administration 1 mg/kg, read-out: Vz
metricName: Vd
# number then unit; no other words

| compound | metricName | reportedValue |
| --- | --- | --- |
| C[C@@H](Cc1cnn[nH]1)OCC(=O)N1Cc2cnc(NC3Cc4ccccc4C3)nc2C1 [Compound I-2S] | Vd | 0.74 L/kg |

Next item in the queue.
Which Vd value belongs to C[C@@H](OCCc1c[nH]nn1)C(=O)N1Cc2cnc(NC3Cc4ccccc4C3)nc2C1 [Compound I-1R] ?
0.76 L/kg

====

# measurementNotes: Pharmacokinetic test in mice
# Assay type: in vivo, male ICR mice
# testParameters: male, ICR, mouse, plasma, oral administration by gavage 10 mg/kg
metricName: AUC(0-t) (ng·h/mL)
Answers are plain numbers, in ng·h/mL.

Which AUC(0-t) value belongs to C[C@@H](OCCc1c[nH]nn1)C(=O)N1Cc2cnc(NC3Cc4ccccc4C3)nc2C1 ?
6120

====

For each record, write down the corresponding IC50.
# experimentalSystem: Autotaxin (ATX) enzyme (Homo sapiens (Human), UniProt Q13822)

| compound | metricName | reportedValue |
| --- | --- | --- |
| C[C@H](OCCc1c[nH]nn1)C(=O)N1Cc2cnc(NC3Cc4ccccc4C3)nc2C1 [Compound I-1S] | IC50 | 28.6 nM |
| CC(OCCc1c[nH]nn1)C(=O)N1Cc2cnc(NC3Cc4ccccc4C3)nc2C1 (racemic) [Compound I-1] | IC50 | 4.24 nM |

Next item in the queue.
Which IC50 value belongs to CC(Cc1cnn[nH]1)OCC(=O)N1Cc2cnc(NC3Cc4ccccc4C3)nc2C1 (racemic) [Compound I-2] ?
1.35 nM

====

# experimentalSystem: hERG channels (CHO cell line stably expressing hERG) (Homo sapiens (Human))
# Sequence (Q12809 whole entry): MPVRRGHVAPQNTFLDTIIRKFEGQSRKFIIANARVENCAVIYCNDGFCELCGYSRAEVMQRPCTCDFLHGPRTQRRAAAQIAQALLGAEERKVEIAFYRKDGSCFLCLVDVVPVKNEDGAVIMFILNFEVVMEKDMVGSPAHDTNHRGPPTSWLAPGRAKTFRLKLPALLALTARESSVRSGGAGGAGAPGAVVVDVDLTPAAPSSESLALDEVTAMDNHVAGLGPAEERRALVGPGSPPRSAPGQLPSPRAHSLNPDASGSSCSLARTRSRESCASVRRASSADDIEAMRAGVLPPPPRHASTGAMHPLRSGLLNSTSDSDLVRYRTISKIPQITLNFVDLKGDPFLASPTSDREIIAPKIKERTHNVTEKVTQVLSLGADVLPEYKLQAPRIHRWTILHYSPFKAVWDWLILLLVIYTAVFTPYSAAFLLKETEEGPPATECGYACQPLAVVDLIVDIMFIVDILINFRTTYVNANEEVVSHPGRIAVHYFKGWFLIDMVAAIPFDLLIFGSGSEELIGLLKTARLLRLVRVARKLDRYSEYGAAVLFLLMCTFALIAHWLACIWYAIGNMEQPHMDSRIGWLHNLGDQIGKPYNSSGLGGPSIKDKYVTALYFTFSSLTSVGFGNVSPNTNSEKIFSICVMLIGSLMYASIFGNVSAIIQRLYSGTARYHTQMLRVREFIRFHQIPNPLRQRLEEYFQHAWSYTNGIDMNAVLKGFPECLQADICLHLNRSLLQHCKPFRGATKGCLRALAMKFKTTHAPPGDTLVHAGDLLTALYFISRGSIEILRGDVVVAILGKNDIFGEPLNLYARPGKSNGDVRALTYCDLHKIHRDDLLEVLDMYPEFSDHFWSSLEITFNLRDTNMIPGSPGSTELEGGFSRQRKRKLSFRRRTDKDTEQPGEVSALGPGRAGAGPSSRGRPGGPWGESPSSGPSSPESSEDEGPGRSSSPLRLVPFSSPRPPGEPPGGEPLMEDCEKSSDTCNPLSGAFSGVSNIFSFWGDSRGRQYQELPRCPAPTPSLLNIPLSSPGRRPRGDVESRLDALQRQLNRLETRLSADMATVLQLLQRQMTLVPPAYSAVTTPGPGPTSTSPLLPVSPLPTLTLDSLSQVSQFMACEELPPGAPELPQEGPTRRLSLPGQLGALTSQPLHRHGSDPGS
# measurementNotes: Inhibitory effect on hERG by full-automatic electrophysiological patch clamp QPatch
# Assay type: cell-based
# testParameters: ratio of hERG IC50 (μM) to ATX IC50 (nM)
For each record, write down the corresponding hERG IC50/ATX IC50.

A selection of reference data follows.
| compound | hERG IC50/ATX IC50 |
| --- | --- |
| CC(OCCc1c[nH]nn1)C(=O)N1Cc2cnc(NC3Cc4ccccc4C3)nc2C1 (racemic) | 22.3/4.24 = 5.26 |
| C[C@@H](Cc1cnn[nH]1)OCC(=O)N1Cc2cnc(NC3Cc4ccccc4C3)nc2C1 | 8.87/1.40 = 6.3 |
| C[C@@H](OCCc1c[nH]nn1)C(=O)N1Cc2cnc(NC3Cc4ccccc4C3)nc2C1 | 22.0/2.67 = 8.24 |

Which hERG IC50/ATX IC50 value belongs to C[C@H](Cc1cnn[nH]1)OCC(=O)N1Cc2cnc(NC3Cc4ccccc4C3)nc2C1 ?
9.48/1.59 = 6.0
